# TARGET_OR_TEST_SYSTEM: Muscarinic acetylcholine receptor M4 (Homo sapiens)
# METHOD_DESCRIPTION: compounds altering M4/GIRK thallium flux, either direction, primary screen, M4 allosteric agonist project, cell-based, HEK293 M4/GIRK, BTC-AM (AID 625);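 also: thallium influx through GIRK channels coupled to M4 in HEK293 cells with BTC-AM dye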
# TEST_CONTEXT: at 10 µM, actives lie on both sides
Listed here are compounds together with their documented fluorescence slope.

COMPOUND: COc1ccc(OCC(O)CN2C(=O)NC(C)(C)C2=O)cc1 (stereo not given)
fluorescence slope: 0.0058
--
COMPOUND: CCOc1ccc(N=C2C(=O)N(CN3CCOCC3)c3ccccc32)cc1
fluorescence slope: 0.00278
--
COMPOUND: Cc1c(C2CC(=O)N(c3ccccc3)C2=O)[nH]n(-c2ccccc2)c1=O (stereo not given)
fluorescence slope: 0.00493
--
COMPOUND: CCOC(=O)c1[nH]c2ccc(C)cc2c1N=CN(CC)CC
fluorescence slope: 0.00485
--
COMPOUND: Nc1nnnn1/N=C/c1cccs1
fluorescence slope: 0.00656
--
COMPOUND: COc1ccc(C2NC3=C(CCC3)C3(C#N)C(OC)(OC)N=C(N)C23C#N)cc1 (stereo not given)
fluorescence slope: 0.0052
--
COMPOUND: Cc1c(O)c(CN2CCCC2)cc2c1oc(=O)c1ccccc12
fluorescence slope: 0.00331
--
COMPOUND: O=c1c2ccccc2ncn1Cc1ccco1
fluorescence slope: 0.00462
--
COMPOUND: c1ccc(-n2c(Cc3cccnc3)nc3cnccc32)cc1
fluorescence slope: 0.00562
--
COMPOUND: COC(=O)C(NC(C)=O)(Nc1ccc(Br)cn1)C(F)(F)F (stereo not given)
fluorescence slope: 0.00445
--
COMPOUND: CCCCc1nc2sc3c(c2c(=O)[nH]1)CCC3
fluorescence slope: 0.00621
--
COMPOUND: CCOC(=O)/C=c1\s/c(=C(\C#N)C(=O)OCC)n(-c2ccccc2)c1=O
fluorescence slope: 0.00573
--
COMPOUND: C/C(=N/n1cnnc1)c1cccnc1
fluorescence slope: 0.00412
--
COMPOUND: Cc1cc(C)n(S(=O)(=O)/C=C/c2ccccc2)n1
fluorescence slope: 0.00397
--
COMPOUND: COCCn1c(SCc2c(F)cccc2Cl)nc2c1c(=O)[nH]c(=O)n2C
fluorescence slope: 0.00509
--
COMPOUND: NC(=O)/C(=N\O)c1ccccc1
fluorescence slope: 0.00531
--
COMPOUND: O=C(OCCN1CCOCC1)c1ccc2c(c1)OCCO2
fluorescence slope: 0.00543
--
COMPOUND: CCCC(CCC(=O)Nc1ccc(C(=O)OC)cc1)C(=O)O (stereo not given)
fluorescence slope: 0.00528
--
COMPOUND: O=C(NCc1cccnc1)NC(C(F)(F)F)C(F)(F)F
fluorescence slope: 0.00444
--
COMPOUND: CCOC(=O)CCNc1n[nH]c(=O)[nH]c1=O
fluorescence slope: 0.00518
--
COMPOUND: Cc1ccc(N(CC(O)CN(C)C)S(=O)(=O)c2ccccc2)cc1 (stereo not given)
fluorescence slope: 0.00579
--
COMPOUND: CCC(=O)Nc1nc2ccccc2n1CCN(C)C
fluorescence slope: 0.00568
--
COMPOUND: N#Cc1nc(-c2cccs2)oc1NCc1ccccc1Cl
fluorescence slope: 0.00761
--
COMPOUND: Cc1ccc(-c2nnc(-c3ccccc3)o2)cc1Br
fluorescence slope: 0.00616
--
COMPOUND: O=C1CC(NCc2ccncc2)C(=O)N1c1ccc(Cl)cc1 (stereo not given)
fluorescence slope: 0.00465
